Cited source for all entries: ChEMBL document CHEMBL1148572

- Test system: MDR1 (P-gp)
- ASSAY_REMARKS: Permeability from apical to basolateral side of the MDCK cell transfected with human MDR1
- Format: ADME, cell-based

{"CPD_SMILES": "C[C@H](N)Cn1ncc2ccc(O)c(F)c21", "UNIT_LABEL": "×10⁻⁶ cm/s", "Papp A→B": 1.11}
{"CPD_SMILES": "C[C@H](N)Cn1ncc2ccc(O)cc21", "UNIT_LABEL": "×10⁻⁶ cm/s", "Papp A→B": 0.76}
{"CPD_SMILES": "COc1cc(C[C@@H](C)N)c(OC)cc1I", "UNIT_LABEL": "×10⁻⁶ cm/s", "Papp A→B": 12.6}
{"CPD_SMILES": "COc1ccc2[nH]cc(CCN(C)C)c2c1", "UNIT_LABEL": "×10⁻⁶ cm/s", "Papp A→B": 16.1}
{"CPD_SMILES": "COc1ccc2cnn(C[C@H](C)N)c2c1", "UNIT_LABEL": "×10⁻⁶ cm/s", "Papp A→B": 14.1}
{"CPD_SMILES": "NCCn1ncc2ccc(O)cc21", "UNIT_LABEL": "×10⁻⁶ cm/s", "Papp A→B": 0.64}
{"CPD_SMILES": "C[C@H](N)Cn1ncc2ccc(O)c(Cl)c21", "UNIT_LABEL": "×10⁻⁶ cm/s", "Papp A→B": 1.65}
{"CPD_SMILES": "Cc1c(O)ccc2cnn(C[C@H](C)N)c12", "UNIT_LABEL": "×10⁻⁶ cm/s", "Papp A→B": 2.49}
{"CPD_SMILES": "C[C@H](N)Cn1ncc2ccc(O)c(I)c21", "UNIT_LABEL": "×10⁻⁶ cm/s", "Papp A→B": 1.22}

---

- EXPERIMENTAL_SYSTEM: monoamine oxidase A (MAO-A) (Rattus norvegicus, UniProt P21396)
- Sequence (P21396 whole entry): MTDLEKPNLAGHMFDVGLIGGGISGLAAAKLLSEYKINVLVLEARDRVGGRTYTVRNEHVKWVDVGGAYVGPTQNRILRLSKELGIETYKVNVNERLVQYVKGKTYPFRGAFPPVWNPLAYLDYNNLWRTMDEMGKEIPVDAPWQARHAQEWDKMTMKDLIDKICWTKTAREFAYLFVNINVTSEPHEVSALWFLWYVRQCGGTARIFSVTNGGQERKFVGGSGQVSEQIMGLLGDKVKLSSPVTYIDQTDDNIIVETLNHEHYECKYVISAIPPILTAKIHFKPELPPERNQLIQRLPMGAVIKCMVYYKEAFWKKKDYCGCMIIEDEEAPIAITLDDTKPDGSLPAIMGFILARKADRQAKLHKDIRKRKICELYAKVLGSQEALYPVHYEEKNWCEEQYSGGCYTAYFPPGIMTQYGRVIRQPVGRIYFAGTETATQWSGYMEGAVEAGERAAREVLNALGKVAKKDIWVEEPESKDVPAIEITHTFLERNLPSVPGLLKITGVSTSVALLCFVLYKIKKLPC
- ASSAY_REMARKS: Inhibition of monoamine oxidase A in rat brain at 1 nM
- Type: tissue-based
MEASUREMENT_KIND: inhibition at 0.001 µM (%)

{"CPD_SMILES": "C[C@H](N)Cn1ncc2ccc(O)cc21", "REPORTED_MEASUREMENT": -14.4}

---

Each record here notes measured Emax.
- EXPERIMENTAL_SYSTEM: 5-hydroxytryptamine receptor 2C (Rattus norvegicus) (UniProt P08909)
- Sequence (whole entry): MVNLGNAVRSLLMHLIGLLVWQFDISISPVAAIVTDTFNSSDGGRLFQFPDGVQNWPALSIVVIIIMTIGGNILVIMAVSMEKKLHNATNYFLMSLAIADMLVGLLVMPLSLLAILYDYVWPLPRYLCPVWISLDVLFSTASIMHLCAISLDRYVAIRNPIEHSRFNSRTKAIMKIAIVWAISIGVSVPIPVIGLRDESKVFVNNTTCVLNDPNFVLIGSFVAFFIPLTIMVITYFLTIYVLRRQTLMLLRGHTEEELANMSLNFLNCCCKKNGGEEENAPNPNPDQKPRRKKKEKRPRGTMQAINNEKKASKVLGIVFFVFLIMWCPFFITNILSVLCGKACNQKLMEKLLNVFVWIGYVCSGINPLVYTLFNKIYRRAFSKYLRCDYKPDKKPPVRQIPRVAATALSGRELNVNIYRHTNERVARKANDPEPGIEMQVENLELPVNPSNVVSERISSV
- ASSAY_REMARKS: Activity against recombinant rat 5HT2C mediated intracellular calcium mobilization by FLIPR in SR3T3 cells

{"CPD_SMILES": "C[C@@H](N)Cn1ncc2ccc(O)cc21", "UNIT_LABEL": "%", "Emax": 97}
{"CPD_SMILES": "C[C@H](N)Cn1ncc2ccc(O)c(Cl)c21", "UNIT_LABEL": "%", "Emax": 104}
{"CPD_SMILES": "NCCn1ncc2ccc(O)cc21", "UNIT_LABEL": "%", "Emax": 104}
{"CPD_SMILES": "COc1ccc2cnn(C[C@H](C)N)c2c1", "UNIT_LABEL": "%", "Emax": 103}
{"CPD_SMILES": "C[C@H](N)Cn1ncc2ccc(O)c(F)c21", "UNIT_LABEL": "%", "Emax": 100}
{"CPD_SMILES": "COc1ccc2[nH]cc(CCN(C)C)c2c1", "UNIT_LABEL": "%", "Emax": 89}
{"CPD_SMILES": "C[C@H](N)Cn1ncc2ccc(O)cc21", "UNIT_LABEL": "%", "Emax": 89}

---

- EXPERIMENTAL_SYSTEM: Alpha-2A adrenergic receptor (Homo sapiens)
- Sequence (P08913 whole entry): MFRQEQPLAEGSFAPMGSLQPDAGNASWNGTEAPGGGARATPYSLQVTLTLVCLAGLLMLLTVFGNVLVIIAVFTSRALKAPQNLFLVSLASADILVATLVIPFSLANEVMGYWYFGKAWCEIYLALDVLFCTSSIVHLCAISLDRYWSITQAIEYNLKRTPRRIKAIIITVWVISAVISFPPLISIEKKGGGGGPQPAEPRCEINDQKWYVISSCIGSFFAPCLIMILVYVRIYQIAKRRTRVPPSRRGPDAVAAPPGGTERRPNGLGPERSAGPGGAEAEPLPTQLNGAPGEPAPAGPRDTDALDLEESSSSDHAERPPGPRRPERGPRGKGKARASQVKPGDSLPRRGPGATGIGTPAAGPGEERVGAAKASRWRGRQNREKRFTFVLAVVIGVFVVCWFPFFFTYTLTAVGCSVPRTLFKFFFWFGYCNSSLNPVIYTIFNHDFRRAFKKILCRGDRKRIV
- ASSAY_REMARKS: Activity at adrenergic alpha-2A receptor expressed in human clonic adenocarcinoma HT29 cell by adenylyl cyclase assay
- Format: functional, cell-based, HT-29

{"CPD_SMILES": "C[C@@H](N)Cn1ncc2ccc(O)cc21", "EC50": "> 10 µM"}
{"CPD_SMILES": "C[C@H](N)Cn1ncc2ccc(O)cc21", "EC50": "> 10 µM"}

---

- EXPERIMENTAL_SYSTEM: 5-hydroxytryptamine receptor 2C (Rattus norvegicus, UniProt P08909)
- Sequence (P08909 whole entry): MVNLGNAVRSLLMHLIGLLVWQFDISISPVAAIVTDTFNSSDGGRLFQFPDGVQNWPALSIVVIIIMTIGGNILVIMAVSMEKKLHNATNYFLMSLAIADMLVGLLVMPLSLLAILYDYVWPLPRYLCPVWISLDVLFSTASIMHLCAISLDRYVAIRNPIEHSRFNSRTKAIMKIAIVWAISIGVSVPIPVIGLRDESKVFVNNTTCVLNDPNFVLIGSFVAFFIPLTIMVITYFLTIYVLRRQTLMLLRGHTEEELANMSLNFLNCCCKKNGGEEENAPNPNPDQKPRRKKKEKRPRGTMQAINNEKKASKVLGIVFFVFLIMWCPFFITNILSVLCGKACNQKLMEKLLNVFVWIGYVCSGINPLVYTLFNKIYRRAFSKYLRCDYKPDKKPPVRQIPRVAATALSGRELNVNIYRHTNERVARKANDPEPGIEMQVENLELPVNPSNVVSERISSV
- ASSAY_REMARKS: Activity against recombinant rat 5HT2C mediated intracellular calcium mobilization by FLIPR in SR3T3 cells
EC50 strictly less than 7 nM = Satisfied. Otherwise Not satisfied.

{"COMPOUND": "C[C@H](N)Cn1ncc2ccc(O)c(Cl)c21", "CATEGORY": "Satisfied"}
{"COMPOUND": "NCCn1ncc2ccc(O)cc21", "CATEGORY": "Satisfied"}
{"COMPOUND": "COc1ccc2cnn(C[C@H](C)N)c2c1", "CATEGORY": "Satisfied"}
{"COMPOUND": "Cc1c(O)ccc2cnn(C[C@H](C)N)c12", "CATEGORY": "Not satisfied"}
{"COMPOUND": "C[C@H](N)Cn1ncc2ccc(O)c(F)c21", "CATEGORY": "Satisfied"}
{"COMPOUND": "C[C@H](N)Cn1ncc2ccc(O)cc21", "CATEGORY": "Satisfied"}
{"COMPOUND": "COc1cc(C[C@@H](C)N)c(OC)cc1I", "CATEGORY": "Not satisfied"}
{"COMPOUND": "COc1ccc2[nH]cc(CC(C)N)c2c1 (centres undefined)", "CATEGORY": "Satisfied"}
{"COMPOUND": "C[C@@H](N)Cn1ncc2ccc(O)cc21", "CATEGORY": "Not satisfied"}

---

- EXPERIMENTAL_SYSTEM: Alpha-1A adrenergic receptor (Homo sapiens)
- Sequence (P35348 whole entry): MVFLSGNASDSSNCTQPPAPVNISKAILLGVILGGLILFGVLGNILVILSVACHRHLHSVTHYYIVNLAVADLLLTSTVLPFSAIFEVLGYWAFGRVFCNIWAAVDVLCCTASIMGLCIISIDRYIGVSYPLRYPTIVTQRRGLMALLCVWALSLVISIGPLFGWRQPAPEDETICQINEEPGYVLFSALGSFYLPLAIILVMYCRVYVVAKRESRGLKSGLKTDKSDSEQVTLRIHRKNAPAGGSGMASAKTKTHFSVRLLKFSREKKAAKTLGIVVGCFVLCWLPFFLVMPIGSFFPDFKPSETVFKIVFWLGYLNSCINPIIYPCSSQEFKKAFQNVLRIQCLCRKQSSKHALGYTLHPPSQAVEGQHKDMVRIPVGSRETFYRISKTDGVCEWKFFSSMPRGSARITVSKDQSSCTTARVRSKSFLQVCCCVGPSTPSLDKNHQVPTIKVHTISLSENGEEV

{"CPD_SMILES": "C[C@H](N)Cn1ncc2ccc(O)cc21", "Ki": "> 30 µM"}
